Value source: patent US20200261595A1

# assayedTarget: insulin receptor A (UniProt P06213-2 28-1370, limits assumed)
# Sequence (P06213 other isoform, or with tags, fused parts or gaps limits assumed): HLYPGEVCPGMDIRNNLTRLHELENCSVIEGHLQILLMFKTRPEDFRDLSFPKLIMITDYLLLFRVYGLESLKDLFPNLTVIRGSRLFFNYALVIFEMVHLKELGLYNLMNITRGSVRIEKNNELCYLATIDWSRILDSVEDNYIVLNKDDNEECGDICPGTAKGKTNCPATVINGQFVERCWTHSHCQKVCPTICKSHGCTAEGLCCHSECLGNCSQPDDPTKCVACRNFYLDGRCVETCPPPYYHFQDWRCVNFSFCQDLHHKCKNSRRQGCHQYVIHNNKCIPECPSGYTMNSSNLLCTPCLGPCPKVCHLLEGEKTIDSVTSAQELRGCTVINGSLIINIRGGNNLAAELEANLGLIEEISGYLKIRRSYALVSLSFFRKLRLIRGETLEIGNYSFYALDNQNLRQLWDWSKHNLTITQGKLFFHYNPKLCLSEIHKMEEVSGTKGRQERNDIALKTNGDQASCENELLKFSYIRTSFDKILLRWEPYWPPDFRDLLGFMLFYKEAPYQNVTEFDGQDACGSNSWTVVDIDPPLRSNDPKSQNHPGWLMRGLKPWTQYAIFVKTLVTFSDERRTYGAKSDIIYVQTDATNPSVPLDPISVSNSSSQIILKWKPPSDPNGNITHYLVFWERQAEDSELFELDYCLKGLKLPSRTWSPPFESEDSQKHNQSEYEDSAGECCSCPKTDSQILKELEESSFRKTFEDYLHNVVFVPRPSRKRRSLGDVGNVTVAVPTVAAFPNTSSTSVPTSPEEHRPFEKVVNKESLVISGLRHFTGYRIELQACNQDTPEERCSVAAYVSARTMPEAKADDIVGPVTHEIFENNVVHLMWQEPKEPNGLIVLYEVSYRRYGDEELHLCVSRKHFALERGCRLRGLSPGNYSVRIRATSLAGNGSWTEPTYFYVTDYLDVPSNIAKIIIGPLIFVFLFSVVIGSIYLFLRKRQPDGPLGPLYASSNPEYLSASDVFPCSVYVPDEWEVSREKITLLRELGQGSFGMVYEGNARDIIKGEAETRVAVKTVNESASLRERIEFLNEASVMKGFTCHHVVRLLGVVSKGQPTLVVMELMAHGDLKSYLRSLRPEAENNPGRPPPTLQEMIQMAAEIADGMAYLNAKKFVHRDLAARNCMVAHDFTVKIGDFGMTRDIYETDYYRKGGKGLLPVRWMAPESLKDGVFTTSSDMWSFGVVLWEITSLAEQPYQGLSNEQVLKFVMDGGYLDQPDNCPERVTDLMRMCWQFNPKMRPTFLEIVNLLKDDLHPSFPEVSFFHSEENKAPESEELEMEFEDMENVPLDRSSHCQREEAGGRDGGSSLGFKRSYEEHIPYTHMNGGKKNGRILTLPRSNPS
# testName: insulin receptor binding assay as in Vienberg et al. 2011; relative to human insulin on insulin receptor A (100%)
Each record here notes measured Insulin receptor affinity [IC50 relative to HI (%)].
Output spec: scalar in %, unitless text.

Sample answers from the record:
(A14E, A21G, A22(GQEP)19, A98K^, A99P, B25H, B29R, desB30 human insulin)/(227A, 234A, 235K hIgG4-Fc(228-447)) … (other, Cys229 (EU numbering) sulphur bound to an acetyl arm of the linker; A98K N(eps) acylated by the trivalent linker 4-[bis[2-[(2-acetyl)amino]ethyl]amino]-4-oxo-butanoyl, Fc made in E. coli; also called Ex 5.1) chain 1: GIVEQCCTSICSLEQLENYCGGQEPGQEPGQEPGQEPGQEPGQEPGQEPGQEPGQEPGQEPGQEPGQEPGQEPGQEPGQEPGQEPGQEPGQEPGQEPKP chain 2: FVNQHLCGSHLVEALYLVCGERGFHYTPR chain 3: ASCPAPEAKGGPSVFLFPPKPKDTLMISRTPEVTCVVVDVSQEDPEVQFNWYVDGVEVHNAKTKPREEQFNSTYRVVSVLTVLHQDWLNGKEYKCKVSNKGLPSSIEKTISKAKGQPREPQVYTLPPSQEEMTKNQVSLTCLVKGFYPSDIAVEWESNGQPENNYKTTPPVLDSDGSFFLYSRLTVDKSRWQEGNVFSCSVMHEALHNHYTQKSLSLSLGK: 5.07
A14E, A21G, A22(GQAPGQAPGQAPGQEP)6-GQAP, A122K^, A123P, B25H, B29R, desB30 human insulin/(227A, 234A, 235K, 297E, 315Q, 384Q, des447 hIgG4-Fc(228-447)) … (other, Cys229 (EU numbering) sulphur bound to an acetyl arm of the linker; A122K N(eps) acylated by the trivalent linker 4-[bis[2-[(2-acetyl)amino]ethyl]amino]-4-oxo-butanoyl, also called Ex 5.20) chain 1: GIVEQCCTSICSLEQLENYCGGQAPGQAPGQAPGQEPGQAPGQAPGQAPGQEPGQAPGQAPGQAPGQEPGQAPGQAPGQAPGQEPGQAPGQAPGQAPGQEPGQAPGQAPGQAPGQEPGQAPKP chain 2: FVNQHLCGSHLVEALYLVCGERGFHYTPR chain 3: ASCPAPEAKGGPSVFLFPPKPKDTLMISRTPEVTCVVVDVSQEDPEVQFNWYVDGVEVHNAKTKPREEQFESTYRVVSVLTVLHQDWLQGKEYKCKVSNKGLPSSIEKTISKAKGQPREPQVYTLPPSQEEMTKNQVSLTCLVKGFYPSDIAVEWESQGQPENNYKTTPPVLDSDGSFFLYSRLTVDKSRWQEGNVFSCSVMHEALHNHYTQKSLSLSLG: 5.49
(A14E, A21G, A22(GQAP)19, A98K^, A99P, B25H, B29R, desB30 human insulin)/(227A, 234A, 235K, 297E, 315Q, 384Q, des447 hIgG4-Fc(228-447)) … (other, Cys229 (EU numbering) sulphur bound to an acetyl arm of the linker; A98K N(eps) acylated by the trivalent linker 6-[bis[2-[(2-acetyl)amino]ethyl]amino]-6-oxo-hexanoyl, also called Ex 5.16) chain 1: GIVEQCCTSICSLEQLENYCGGQAPGQAPGQAPGQAPGQAPGQAPGQAPGQAPGQAPGQAPGQAPGQAPGQAPGQAPGQAPGQAPGQAPGQAPGQAPKP chain 2: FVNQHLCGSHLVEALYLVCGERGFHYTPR chain 3: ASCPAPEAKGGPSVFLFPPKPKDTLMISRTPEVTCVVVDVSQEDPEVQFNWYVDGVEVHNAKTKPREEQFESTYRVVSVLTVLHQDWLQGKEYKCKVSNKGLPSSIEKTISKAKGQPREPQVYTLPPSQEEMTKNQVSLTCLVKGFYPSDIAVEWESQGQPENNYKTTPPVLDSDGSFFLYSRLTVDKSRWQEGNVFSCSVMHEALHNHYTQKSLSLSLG: 3.86

Note: attention shifts to another entry.
Requested field: Insulin receptor affinity [IC50 relative to HI (%)]. Item: A14E, A21G, A22(GQEP)3, A34G, A35Q, A36E, A37K^, A38P, B25H, B29R, desB30 human insulin/(227A, 234A, 235K hIgG4-Fc(228-447)) … (other, Cys229 (EU numbering) sulphur bound to an acetyl arm of the linker; A37K N(eps) acylated by the trivalent linker 4-[bis[2-[(2-acetyl)amino]ethyl]amino]-4-oxo-butanoyl, also called Ex 5.10) chain 1: GIVEQCCTSICSLEQLENYCGGQEPGQEPGQEPGQEKP chain 2: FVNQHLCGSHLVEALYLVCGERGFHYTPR chain 3: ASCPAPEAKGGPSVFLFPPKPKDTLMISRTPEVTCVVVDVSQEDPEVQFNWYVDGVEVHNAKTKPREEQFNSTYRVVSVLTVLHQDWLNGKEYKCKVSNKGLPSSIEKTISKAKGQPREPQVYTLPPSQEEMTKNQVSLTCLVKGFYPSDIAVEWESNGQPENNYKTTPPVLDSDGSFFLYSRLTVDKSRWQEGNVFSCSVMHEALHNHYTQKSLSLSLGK 2.47
